Test: In vitro metabolic stability in human liver microsome
Assay type: in vitro ADME
Conditions: human liver microsomes
Labelling: CLint Human reported below 10 μL/min/mg proteins becomes Yes; at or above becomes No.

A selection of reference data follows.
compound=N[C@@H]1c2ccccc2CC12CCN(c1nc3[nH]nc(C4(c5ccc(OC(F)(F)F)cc5)CC4)c3c(=O)[nH]1)CC2 label_value=Yes
compound="Cn1c(N2CCC3(CC2)Cc2ccccc2[C@H]3N)nc2[nH]nc(Sc3cccc(Cl)c3Cl)c2c1=O [Comparative compound 1, reference compound]" label_value=No
compound=N[C@@H]1c2ccccc2CC12CCN(c1nc3[nH]nc(C4(c5ccc(Cl)c(Cl)c5)CC4)c3c(=O)[nH]1)CC2 label_value=No

[ask] # check: CLint Human < 10 μL/min/mg proteins for `N[C@@H]1c2ccccc2CC12CCN(c1nc3[nH]nc(C4(c5ccccc5)CC4)c3c(=O)[nH]1)CC2`
[reply] No

[ask] # check: CLint Human < 10 μL/min/mg proteins for N[C@@H]1c2ccccc2CC12CCN(c1nc3[nH]nc(C4(c5ccccc5)CC4(F)F)c3c(=O)[nH]1)CC2 (stereo partly drawn)
[reply] No

====

Target: UniProt Q06124
Sequence (Q06124 whole entry): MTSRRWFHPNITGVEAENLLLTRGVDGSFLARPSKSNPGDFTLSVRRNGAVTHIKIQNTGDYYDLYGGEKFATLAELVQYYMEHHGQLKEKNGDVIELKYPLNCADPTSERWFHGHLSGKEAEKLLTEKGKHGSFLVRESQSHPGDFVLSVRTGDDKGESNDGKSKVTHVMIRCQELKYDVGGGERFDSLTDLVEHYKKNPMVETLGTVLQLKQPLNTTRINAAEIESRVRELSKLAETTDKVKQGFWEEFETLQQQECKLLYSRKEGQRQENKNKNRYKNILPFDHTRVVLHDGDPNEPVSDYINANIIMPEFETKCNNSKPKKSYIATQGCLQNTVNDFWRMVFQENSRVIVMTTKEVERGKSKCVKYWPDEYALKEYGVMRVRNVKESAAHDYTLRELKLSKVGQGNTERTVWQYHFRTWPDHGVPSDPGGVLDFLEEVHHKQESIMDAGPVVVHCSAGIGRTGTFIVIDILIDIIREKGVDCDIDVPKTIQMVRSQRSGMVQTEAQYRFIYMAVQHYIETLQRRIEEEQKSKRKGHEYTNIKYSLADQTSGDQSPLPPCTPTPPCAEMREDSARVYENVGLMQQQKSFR
Experiment: SHP2 allosteric inhibitor enzyme activity assay (DiFMUP fluorescence)
Type: biochemical
Settings: class symbols
Property Name: IC50

Check out these entries, answers already filled in.
test_smiles=N[C@@H]1c2ccccc2CC12CCN(c1nc3[nH]nc(C4(c5cccc6c5CC(=O)N6)CC4)c3c(=O)[nH]1)CC2 experimental_system="UniProt Q06124" value_reported="≤ 0.02 µM"
test_smiles=N[C@@H]1c2cc(F)ccc2CC12CCN(c1nc3[nH]nc(C4(c5ccccc5)CC4)c3c(=O)[nH]1)CC2 experimental_system="UniProt Q06124" value_reported="≤ 0.02 µM"
test_smiles=Cn1ccc(C2(c3n[nH]c4nc(N5CCC6(CC5)Cc5ccccc5[C@H]6N)[nH]c(=O)c34)CC2)c(Cl)c1=O experimental_system="UniProt Q06124" value_reported="≤ 0.02 µM"
test_smiles=N[C@@H]1c2ccccc2CC12CCN(c1nc3[nH]nc(C4(c5ccnc(NC6CC6)c5Cl)CC4)c3c(=O)[nH]1)CC2 experimental_system="UniProt Q06124" value_reported="≤ 0.02 µM"
test_smiles=CC1(C)Cc2nc(C(F)(F)F)ccc2C(c2n[nH]c3nc(N4CCC5(CC4)Cc4ccccc4[C@H]5N)[nH]c(=O)c23)=C1F experimental_system="UniProt Q06124" value_reported="≤ 0.02 µM"

[ask] Field: IC50 (UniProt Q06124). Entry: `N[C@@H]1c2ccccc2CC12CCN(c1nc3[nH]nc(C4=CCCc5nc(C6CC6)cc(C(F)(F)F)c54)c3c(=O)[nH]1)CC2`
[reply] 0.02 to 0.06 µM

[ask] Field: IC50 (UniProt Q06124). Entry: `C[C@@H]1OCC2(CCN(c3nc4[nH]nc(C5(c6ccccc6)CC5)c4c(=O)[nH]3)CC2)[C@@H]1N`
[reply] 0.02 to 0.06 µM

====

# pIC50 per entry
Target: UniProt:Q06124
Experiment: SHP2 allosteric inhibitor enzyme activity assay (DiFMUP fluorescence)
Assay type: biochemical
Settings: class symbols
pIC50: −log10 of the molar value.

test_smiles=N[C@@H]1c2ccccc2CC12CCN(c1nc3[nH]nc(C4(c5ccnc(N6CCOCC6)c5)CC4)c3c(=O)[nH]1)CC2 value_reported="7.22 to 7.70"
test_smiles=N[C@@H]1c2ccccc2CC12CCN(c1nc3[nH]nc(C4(c5nc6ccccc6[nH]5)CC4)c3c(=O)[nH]1)CC2 value_reported="7.22 to 7.70"
test_smiles=CC1(C)C=C(c2n[nH]c3nc(N4CCC5(CC4)Cc4ccccc4[C@H]5N)[nH]c(=O)c23)c2sc(N)nc2C1 value_reported="7.22 to 7.70"
test_smiles=N[C@@H]1c2ccccc2CC12CCN(c1nc3[nH]nc(C4(c5cccc6c5COC6)CC4)c3c(=O)[nH]1)CC2 value_reported="≥ 7.70"
test_smiles=Cc1cc(C(F)(F)F)c2c(n1)CCC=C2c1n[nH]c2nc(N3CCC4(CC3)Cc3ccccc3[C@H]4N)[nH]c(=O)c12 value_reported="7.22 to 7.70"

[ask] # pIC50 lookup, item `COc1ccc(C2(c3n[nH]c4nc(N5CCC6(CC5)Cc5ccccc5[C@H]6N)[nH]c(=O)c34)CC2)cc1OC`
[reply] ≥ 7.70

[ask] # pIC50 lookup, item `N[C@@H]1c2ccccc2CC12CCN(c1nc3[nH]nc(C4=CCCc5ncccc54)c3c(=O)[nH]1)CC2`
[reply] ≥ 7.70

[ask] # pIC50 lookup, item `N[C@@H]1c2ccccc2CC12CCN(c1nc3[nH]nc(C4(c5ccc6ncccc6c5)CC4)c3c(=O)[nH]1)CC2`
[reply] ≥ 7.70

[ask] # pIC50 lookup, item `N[C@@H]1c2ccccc2CC12CCN(c1nc3[nH]nc(C4(c5ccccc5)CCCCC4)c3c(=O)[nH]1)CC2`
[reply] 7.22 to 7.70

[ask] # pIC50 lookup, item `N[C@@H]1c2ccccc2CC12CCN(c1nc3[nH]nc(C4=C(F)CCc5ncccc54)c3c(=O)[nH]1)CC2`
[reply] ≥ 7.70

[ask] # pIC50 lookup, item `C[C@@H]1OCC2(CCN(c3nc4[nH]nc(C5(c6cccc(C#N)c6)CC5)c4c(=O)[nH]3)CC2)[C@@H]1N`
[reply] 7.22 to 7.70

[ask] # pIC50 lookup, item `COc1cc(C2(c3n[nH]c4nc(N5CCC6(CC5)Cc5ccccc5[C@H]6N)[nH]c(=O)c34)CC2)ccn1`
[reply] ≥ 7.70

[ask] # pIC50 lookup, item `CNc1ncc2c(n1)CC(C)(C)C=C2c1n[nH]c2nc(N3CCC4(CC3)Cc3ccccc3[C@H]4N)[nH]c(=O)c12`
[reply] ≥ 7.70

[ask] # pIC50 lookup, item `N[C@@H]1c2ccccc2CC12CCN(c1nc3[nH]nc(C4(c5cccc(C6CC6)c5)CC4)c3c(=O)[nH]1)CC2`
[reply] ≥ 7.70

[ask] # pIC50 lookup, item `N[C@@H]1c2ccccc2CC12CCN(c1nc3[nH]nc(C4=CCCc5ccccc54)c3c(=O)[nH]1)CC2`
[reply] ≥ 7.70

[ask] # pIC50 lookup, item `N[C@@H]1c2ccccc2CC12CCN(c1nc3[nH]nc(C4(c5ccccc5F)CC4)c3c(=O)[nH]1)CC2`
[reply] ≥ 7.70

[ask] # pIC50 lookup, item `N[C@@H]1c2ccccc2CC12CCN(c1nc3[nH]nc(C4(c5ccccn5)CC4)c3c(=O)[nH]1)CC2`
[reply] ≥ 7.70

[ask] # pIC50 lookup, item `N[C@@H]1c2ccccc2CC12CCN(c1nc3[nH]nc(C4=CNS(=O)(=O)c5ccccc54)c3c(=O)[nH]1)CC2`
[reply] ≥ 7.70

[ask] # pIC50 lookup, item `N[C@@H]1c2ccccc2CC12CCN(c1nc3[nH]nc(C4(c5ccnc(N6CCC6)c5Cl)CC4)c3c(=O)[nH]1)CC2`
[reply] ≥ 7.70

[ask] # pIC50 lookup, item `CSc1ccc2c(c1)[C@@H](N)C1(CCN(c3nc4[nH]nc(C5(c6ccccc6)CC5)c4c(=O)[nH]3)CC1)C2`
[reply] ≥ 7.70

[ask] # pIC50 lookup, item `Cc1cnc(C2(c3n[nH]c4nc(N5CCC6(CC5)Cc5ccccc5[C@H]6N)[nH]c(=O)c34)CC2)o1`
[reply] ≥ 7.70

Sourced from patent US20230192705A1
